Hello, the source for this data is ChEMBL document CHEMBL1629536, in case you need it.

# tested_on: Bifunctional epoxide hydrolase 2 (Homo sapiens, UniProt P34913)
# Sequence (P34913 whole entry): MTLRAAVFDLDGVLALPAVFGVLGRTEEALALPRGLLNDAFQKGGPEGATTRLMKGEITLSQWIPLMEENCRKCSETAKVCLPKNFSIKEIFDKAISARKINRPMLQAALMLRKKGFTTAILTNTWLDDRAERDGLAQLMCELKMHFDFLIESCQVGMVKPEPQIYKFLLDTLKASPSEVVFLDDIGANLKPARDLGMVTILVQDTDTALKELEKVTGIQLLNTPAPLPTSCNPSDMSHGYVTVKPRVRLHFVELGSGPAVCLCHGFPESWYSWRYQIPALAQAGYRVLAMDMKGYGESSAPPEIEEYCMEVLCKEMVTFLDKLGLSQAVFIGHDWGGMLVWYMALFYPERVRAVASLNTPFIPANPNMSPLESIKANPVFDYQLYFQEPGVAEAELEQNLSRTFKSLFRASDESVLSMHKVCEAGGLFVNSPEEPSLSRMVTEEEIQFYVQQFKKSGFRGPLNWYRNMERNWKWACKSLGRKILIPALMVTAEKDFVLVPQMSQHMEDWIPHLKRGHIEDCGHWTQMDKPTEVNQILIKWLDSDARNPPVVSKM
# assay_notes: Inhibition of human recombinant soluble epoxide hydrolase expressed in baculovirus expression system by fluorimetric assay
pIC50: −log10 of the molar value.

# molecular_string, pIC50
measured = [
    ("COc1cc(C(=O)N2CCN(CCCCOc3cccc(NC(=O)NC45CC6CC(CC(C6)C4)C5)c3)CC2)cc(OC)c1OC", 8.02),
    ("CN1CCN(CCOc2cccc(NC(=O)NC34CC5CC(CC(C5)C3)C4)c2)CC1", 8.11),
    ("CC(=O)N1CCN(C(=O)CCCOc2cccc(NC(=O)NC34CC5CC(CC(C5)C3)C4)c2)CC1", 8.27),
    ("CC(=O)N1CCN(CCCCCOc2cccc(NC(=O)NC34CC5CC(CC(C5)C3)C4)c2)CC1", 8.55),
    ("O=C(Nc1ccccc1OCCCN1CCNCC1)NC12CC3CC(CC(C3)C1)C2", 4.01),
]
